- MEASUREMENT_DESCRIPTION: Stability test of different crystal forms
- Type: physicochemical
- ASSAY_CONTEXT: 0 day
Please go through the items and note down their Content.
One number for each entry, in %.

Field: Content. Fill in for each record below.
1. CCc1cc2c(N3CCC(C)(OC)CC3)c(C#N)c(=O)[nH]c2cn1 [Crystal form VII]
2. CCc1cc2c(N3CCC(C)(OC)CC3)c(C#N)c(=O)[nH]c2cn1 [Crystal form I]
3. CCc1cc2c(N3CCC(C)(OC)CC3)c(C#N)c(=O)[nH]c2cn1 [Crystal form VI]
4. CCc1cc2c(N3CCC(C)(OC)CC3)c(C#N)c(=O)[nH]c2cn1 [Crystal form II]
5. CCc1cc2c(N3CCC(C)(OC)CC3)c(C#N)c(=O)[nH]c2cn1 [Crystal form IV]

### Response
[100.0, 99.7, 99.9, 99.8, 90.9]

Hello, I would appreciate it if you could give Content for each entry below.
1. CCc1cc2c(N3CCC(C)(OC)CC3)c(C#N)c(=O)[nH]c2cn1 [Crystal form V]
2. CCc1cc2c(N3CCC(C)(OC)CC3)c(C#N)c(=O)[nH]c2cn1 [Crystal form III]

### Response
1. 97.3
2. 99.9

###

- MEASUREMENT_DESCRIPTION: Solubility in test solutions at different pHs and water
- Type: physicochemical
- ASSAY_CONTEXT: pH 4.5 phosphate buffered solution, 37° C.
- Description: […] The solubility of the samples was quantitatively calculated according to the single-point external standard method.
MEASUREMENT_TYPE: 24-hour solubility
Lab note: write values as number then unit, every time.

1) CCc1cc2c(N3CCC(C)(OC)CC3)c(C#N)c(=O)[nH]c2cn1 [Compound of formula (I)] : 160 µg/mL
2) CCc1cc2c(N3CCC(C)(OC)CC3)c(C#N)c(=O)[nH]c2cn1 [Crystal form II] : 160 µg/mL
3) CCc1cc2c(N3CCC(C)(OC)CC3)c(C#N)c(=O)[nH]c2cn1 [Crystal form III] : 150 µg/mL

Give one value of 24-hour solubility per listed compound.
1. CCc1cc2c(N3CCC(C)(OC)CC3)c(C#N)c(=O)[nH]c2cn1 [Crystal form VI]
2. CCc1cc2c(N3CCC(C)(OC)CC3)c(C#N)c(=O)[nH]c2cn1 [Crystal form V]
3. CCc1cc2c(N3CCC(C)(OC)CC3)c(C#N)c(=O)[nH]c2cn1 [Crystal form IV]
4. CCc1cc2c(N3CCC(C)(OC)CC3)c(C#N)c(=O)[nH]c2cn1 [Crystal form I]

### Response
["170 µg/mL", "350 µg/mL", "130 µg/mL", "130 µg/mL"]

Record summary for CCc1cc2c(N3CCC(C)(OC)CC3)c(C#N)c(=O)[nH]c2cn1 [Crystal form VII] : reported 24-hour solubility = 140 µg/mL

###

- MEASUREMENT_DESCRIPTION: Pharmacokinetic evaluation in rats
- Assay type: in vivo, male SD rats
- ASSAY_CONTEXT: Sprague-Dawley, rat, plasma; male SD rats, intravenous bolus 5 mg/kg; read-out: AUClast iv
- Protocol: Test substances: the compound of formula (I) was prepared by example 1 of the present invention, and the crystal form I was prepared by example 2 of the present invention. Administration to Animals and Sample Collection: […]
MEASUREMENT_TYPE: AUC(0-t) (ng·h/mL)
Numbers only, in ng·h/mL.

Briefly, AUC(0-t) measured for CCc1cc2c(N3CCC(C)(OC)CC3)c(C#N)c(=O)[nH]c2cn1 [Crystal form I] : 2450

Cited source for all entries: patent US12234233B2
